System: 786-0
assay explanation: Growth inhibition of human 786-0 cells incubated for 48 hrs by sulforhodamine B assay
Format: functional
experimental setup: 786-0, 48 h, read-out: pTGI (converted)
quantity: TGI (µM)

INSERT INTO measurements (smiles, reading_qualifier, value_reported) VALUES
  ('CC(C)[C@@]12C[C@@H](NC(=O)CO)[C@@](C)(O1)[C@@H]1CC[C@@H](C)[C@H]1[C@@H]2OC(=O)/C=C/C1CCCCC1', '>', 44.7),
  ('CC(C)[C@@]12C[C@@H](NC(=O)CO)[C@@](C)(O1)[C@@H]1CC[C@@H](C)[C@H]1[C@@H]2OC(=O)/C=C/c1ccccc1', '=', 24),
  ('C/C(=C\C(=O)O[C@H]1[C@@H]2[C@H](C)CC[C@H]2[C@]2(C)O[C@@]1(C(C)C)C[C@H]2NC(=O)CO)c1ccccc1', '>', 100),
  ('CC(C)[C@@]12C[C@@H](NC(=O)CO)[C@@](C)(O1)[C@@H]1CC[C@@H](C)[C@H]1[C@@H]2OC(=O)c1ccc2ccccc2c1', '=', 28.2);
